Please go through the items and note down their logP.
Where a SMILES comes first, the peptide text is derived from it.
// return a plain number; no unit text

Request: Give the reported logP for this compound. `O=C1c2ccccc2OCN1CCO[N+](=O)[O-]`
Response: 1.85

Request: Give the reported logP for this compound. CC(C)CC(NC(=O)C1CCCN1)C(=O)O (stereo not drawn) (H-Pro-Leu-OH; configuration not given here)
Response: -2.41

Request: Give the reported logP for this compound. `CCCCCCCCCCCCN=C=S`
Response: 7.13

Request: Give the reported logP for this compound. CCCC(=NOCC)C1=C(O)CC2(CCCCC2C)OC1=O (configuration not stated)
Response: 3.9

Request: Give the reported logP for this compound. OCC1OC(Oc2ccc(F)cc2)C(O)C(O)C1O (configuration not stated)
Response: -0.42

Request: Give the reported logP for this compound. `CC(=O)c1ccc(Cl)cc1O`
Response: 2.97

Request: Give the reported logP for this compound. `Cc1c(O)c(=O)ccn1CCCOC(=O)c1ccc(O)cc1`
Response: 0.8

Request: Give the reported logP for this compound. `N#CC(C#N)=NNc1cccc(Cl)c1Cl`
Response: 3.85

Request: Give the reported logP for this compound. CC(C)(O)C1CCC2(C)CCCC(=O)C2C1 (configuration not stated)
Response: 1.92

Request: Give the reported logP for this compound. `O=C(O)CCCCON=C(c1ccccc1)c1cncnc1`
Response: 2.65

Request: Give the reported logP for this compound. COc1ccc(C2Cc3cc(C(F)(F)F)ccc3N(CCN(C)C)C(=O)C2OC(C)=O)cc1 (configuration not stated)
Response: 4.8

Request: Give the reported logP for this compound. `CCc1cccc(CNc2[nH]cnc3ncnc2-3)c1`
Response: 2.98

----------
Where a SMILES comes first, the peptide text is derived from it.
# if value of logP reaches 2, tag rule met; if it stays below, tag rule not met

Request: hey, is logP for this one >= 2? `O=S(=O)(NC(=S)NC1CCCCC1)c1cnccc1NC1CCCCCC1`
Response: rule met

Request: hey, is logP for this one >= 2? `NC(=O)c1[nH]cc(-c2ccc(Cl)cc2)c1N1CCOCC1`
Response: rule met

Request: hey, is logP for this one >= 2? `C=C(C)C(=O)OCCCCCCCCCCCC`
Response: rule met

Request: hey, is logP for this one >= 2? `c1ccc(CCCc2ccccc2)cc1`
Response: rule met

Request: hey, is logP for this one >= 2? `CCOCCOCCOc1ccc(NC(=O)NC23CC4CC(CC(C4)C2)C3)cc1`
Response: rule met

Request: hey, is logP for this one >= 2? CN1CC(O)N(C(=O)Nc2ccccc2)C1=O (stereo not drawn)
Response: rule not met

Request: hey, is logP for this one >= 2? CC(C)CC(N)C(=O)NC(CC(C)C)C(=O)NC(CC(C)C)C(=O)N1CCCC1C(=O)O (stereo not drawn) (H-LLLP-OH; configuration not given here)
Response: rule not met

Request: hey, is logP for this one >= 2? CC(C(=O)OC1CCCCC1)S(=O)(=O)c1ccc([N+](=O)[O-])cc1 (stereo not drawn)
Response: rule met

Request: hey, is logP for this one >= 2? `O=C(O)CCCCCON=C(c1ccccc1)c1ccncn1`
Response: rule met

Request: hey, is logP for this one >= 2? `CCN(CC)c1ccc(-n2c(C(F)(F)F)nn(C)c2=S)cn1`
Response: rule met

Request: hey, is logP for this one >= 2? `O=c1cc(-c2ccccc2Cl)oc2ccc(Cl)cc12`
Response: rule met

Request: hey, is logP for this one >= 2? `Cc1c(C)c2cc3c(C)coc3nc2oc1=O`
Response: rule met

Request: hey, is logP for this one >= 2? CCOC(=O)OC(C)C1=CCSC2C(NC(=O)C(=NOC)c3csc(N)n3)C(=O)N12 (stereo not drawn)
Response: rule not met

Request: hey, is logP for this one >= 2? `COc1cc2ncnc(Nc3ccccc3F)c2cc1OC`
Response: rule met

Request: hey, is logP for this one >= 2? `O=C1c2ccc(C(F)(F)F)cc2OCN1CCO[N+](=O)[O-]`
Response: rule met

Request: hey, is logP for this one >= 2? `O=c1ccc2cc3ccoc3cc2s1`
Response: rule met

Request: hey, is logP for this one >= 2? CC(C)CC(N)C(=O)NC(C(=O)NC(C(=O)O)C(C)C)C(C)C (stereo not drawn) (H-Leu-Val-Val-OH; configuration not given here)
Response: rule not met

Request: hey, is logP for this one >= 2? CCC(C)C(NC(C)=O)C(=O)NC(Cc1ccccc1)C(=O)NC(CCCNC(=N)N)C(N)=O (stereo not drawn) (Ac-Ile-Phe-Arg-NH2; configuration not given here)
Response: rule not met

Request: hey, is logP for this one >= 2? `Cn1c2c(c3cc(Cl)ccc31)CCNC2`
Response: rule met

Request: hey, is logP for this one >= 2? CC12CC(Cl)(Cl)C(CC1(Cl)Cl)C2(CCl)C(Cl)Cl (stereo not drawn)
Response: rule met

Request: hey, is logP for this one >= 2? `Clc1ccc(-c2noc(N3CCOCC3)n2)cc1`
Response: rule met

Request: hey, is logP for this one >= 2? CCCCNC1CC(OC2CC(O)(C(=O)CO)Cc3c(O)c4c(c(O)c32)C(=O)c2c(OC)cccc2C4=O)OC(C)C1O (stereo not drawn)
Response: rule met

Request: hey, is logP for this one >= 2? `O=C(O)c1cccc(F)c1F`
Response: rule not met

Request: hey, is logP for this one >= 2? CC(C)C(N)C(=O)NC(Cc1ccccc1)C(=O)NC(Cc1ccc(O)cc1)C(=O)O (stereo not drawn)
Response: rule not met

Request: hey, is logP for this one >= 2? Cc1nc2c3c(c(C(N)=O)cn2c1C)CCC(c1ccccc1)O3 (stereo not drawn)
Response: rule met

Request: hey, is logP for this one >= 2? COC1=CC(=O)c2c(c(COC(N)=O)c3n2CCC3OC(C)=O)C1=O (stereo not drawn)
Response: rule not met

Request: hey, is logP for this one >= 2? CC1(C(Cl)Cl)C2C(Cl)C(Cl)C1(C(Cl)Cl)C(Cl)C2Cl (stereo not drawn)
Response: rule met

Request: hey, is logP for this one >= 2? COC(=O)C(C)NP(=O)(OCC1C=CC(n2cc(C)c(=O)[nH]c2=O)O1)Oc1ccc(C)cc1 (stereo not drawn)
Response: rule not met

Request: hey, is logP for this one >= 2? `Cc1ccc(CO)c(C=NNC(=O)c2cccc(F)c2)c1O`
Response: rule met

Request: hey, is logP for this one >= 2? `CCCNc1nc(CCC)nc(N2CCOCC2)n1`
Response: rule met

Request: hey, is logP for this one >= 2? CN(c1nc2ccccc2s1)C1CCN(CC(O)COc2ccc(F)cc2)CC1 (stereo not drawn)
Response: rule met

Request: hey, is logP for this one >= 2? `Cc1oc2nc3oc(=O)ccc3c(C)c2c1C`
Response: rule met

Request: hey, is logP for this one >= 2? `CCOc1ccccc1CNc1[nH]cnc2ncnc1-2`
Response: rule met
